Item-by-item account of TGI
# Tested on: RPMI-8226 leukemia
# ASSAY_COMMENT: NCI tumour cell line growth inhibition, 48 h

Some compounds with known TGI results, for comparison:
{"COMPOUND": "COc1ccc2c(c1)nc(C(=O)c1ccco1)c(C(F)(F)F)[n+]2[O-]", "RESULT": "> 100 µM"}
{"COMPOUND": "COc1ncc(Nc2ncc([C@@H](C)N3CCN(S(C)(=O)=O)CC3)cc2-c2nc(C)nc(N)n2)cc1F", "RESULT": "> 100 µM"}

IN: Please look up its TGI: `CC(C)(C)c1ccc(Oc2ccc(N)cn2)cc1`
OUT: 41.2 µM

IN: Input `O=C(N=c1ccc2nc(=O)[nH]n(O)c-2c1)C(F)(F)F`
OUT: > 100 µM

IN: Input `O=C(O)c1ccc(C2=Cc3cc(Cl)ccc3OC2)cc1`
OUT: > 100 µM

IN: Input `COCN1COCN=C1NC#N`
OUT: > 100 µM

IN: Input CC(O)(P(=O)(O)O)P(=O)(O)OCC(O)CN1CCOCC1 (stereo unspecified)
OUT: > 100 µM

IN: Input `N#C/C(=C/c1ccc2c(c1)OCO2)C(=O)c1ccccc1`
OUT: > 100 µM
